Numbers sourced from PubChem BioAssay (NCI).

# Tested on: HOP-62 NSCLC
# protocol details: NCI tumour cell line growth inhibition, 48 h
endpoint label: TGI

Some compounds with known TGI results, for comparison:
O=C1NC(=NCc2ccccc2Br)S/C1=C\c1ccc2ncccc2c1 : > 17.5 µM
COc1ccc(C(=O)O)c(Br)c1OCc1ccccc1 : > 100 µM
CC(C)(C)OC(=O)NC(Cc1ccc(OCc2ccccc2)cn1)C(=O)N1CCCC1 (configuration not stated) : > 100 µM
O=C(CSc1nnc(-c2ccccn2)s1)N/N=C/c1ccc([N+](=O)[O-])cc1 : > 100 µM
CC(C)/C=N\N1C(N)=C(C#N)C(C#N)(C#N)C1C(C)C (configuration not stated) : > 100 µM

Problem: # get_value(readout='TGI', item= `O=C1/C(=C\c2ccc(Cl)cc2)CCOc2c1ccc1ccccc21` )
Solution: 63.6 µM

Problem: # get_value(readout='TGI', item= `O=C(NCc1ccccc1)c1cc2ccc(O)c(O)c2cn1` )
Solution: 47.9 µM

Problem: # get_value(readout='TGI', item= `COc1ccc2[nH]c3c(C)c4ccnc(NCCCN(C)CCCNc5ccc([N+](=O)[O-])c6[nH]c7ccccc7c(=O)c56)c4c(C)c3c2c1` )
Solution: 1.06 µM

----------
# Test system: SNB-19 CNS
# protocol details: NCI tumour cell line growth inhibition, 48 h
endpoint label: TGI

Some molecules with known TGI results, for comparison:
CC(C)(C)OC(=O)N1CC(O)O[C@H](c2ccccc2)[C@@H]1c1ccccc1 (stereo partly specified) : 29.1 µM
Cc1cc(C)nc(NS(=O)(=O)c2ccc(NC(=O)c3cccc4c(Nc5ccc(S(=O)(=O)Nc6nc(C)cc(C)n6)cc5)c5ccc(Cl)cc5nc34)cc2)n1 : > 100 µM
CCn1c(-c2nonc2N)nc2c(C#CC(C)(C)O)nc(CN3CCCC3)cc21 : > 25 µM
O=C1C(NCCF)=C(Cl)C(=O)c2ncccc21 : 2.68 µM
COc1cc2c3c(c1O)-c1c(ccc(OC)c1OC)CC3N(C)CC2 (stereo unspecified) : > 100 µM

Problem: # get_value(readout='TGI', item= `N=C1N(/N=C/c2ccccn2)C(=Nc2ccccc2)C(=S)N1c1ccccc1` )
Solution: 31.2 µM

Problem: # get_value(readout='TGI', item= `O=C(/C=C/c1cccs1)c1ccc(Cl)cc1Cl` )
Solution: 64.2 µM

Problem: # get_value(readout='TGI', item= `N#Cc1c(-c2ccc(Cl)cc2)cc(-c2ccc(Nc3ccnc4cc(Cl)ccc34)cc2)nc1N` )
Solution: > 100 µM

Problem: # get_value(readout='TGI', item= COc1ccc(C(CC(C)=O)c2c(O)c3ccccc3oc2=O)cc1OC (stereo unspecified) )
Solution: > 100 µM

Problem: # get_value(readout='TGI', item= `O=C1OC(c2ccccc2)=N/C1=C\c1ccc(Cl)cc1` )
Solution: > 100 µM

Problem: # get_value(readout='TGI', item= COc1cc2c(cc1OC)C(C#N)(Cc1ccccc1)N(C(=O)c1ccccc1)C=C2 (stereo unspecified) )
Solution: > 100 µM

Problem: # get_value(readout='TGI', item= `CNC(=O)Oc1ccc(C(=S)Nc2ccc(Br)cc2)cc1` )
Solution: > 100 µM

Problem: # get_value(readout='TGI', item= `O=C1/C(=C\c2ccc(Cl)cc2)CCOc2c1ccc1ccccc21` )
Solution: 72.3 µM

Problem: # get_value(readout='TGI', item= `CCOC(=O)c1c(SC(=O)C(C)(C)Oc2ccc(Cl)cc2)n(-c2ccccc2)c(=S)n(-c2ccccc2)c1=O` )
Solution: > 100 µM

Problem: # get_value(readout='TGI', item= `COc1c2c(cc3occ(-c4ccc(CC=C(C)C)cc4)c(=O)c13)OC(C)(C)C=C2` )
Solution: > 100 µM

Problem: # get_value(readout='TGI', item= `Clc1ccc2c(NCCNC3CCCCC3)ccnc2c1` )
Solution: 35.5 µM

Problem: # get_value(readout='TGI', item= `COc1ccccc1-c1cc(=O)c2c(C)ccnc2[nH]1` )
Solution: > 100 µM

----------
# Tested on: MOLT-4 leukemia
# protocol details: NCI tumour cell line growth inhibition, 48 h
endpoint label: TGI

Some compounds with known TGI results, for comparison:
CC(OC(C)(C)C)[C@H](NC(=O)OCc1ccccc1)C(=O)NC(OCc1ccccc1)[C@H]1COC(C)(C)O1 (stereo not given in full) : > 10 µM
COc1cccc(/C(COc2ccc3c(c2)oc(=O)c2ccccc23)=N\O)c1 : 35 µM

Problem: Entry CC(=O)OCC1OC(n2c3c(cc(C#N)c2=O)CCCCCC3)C(OC(C)=O)C(OC(C)=O)C1OC(C)=O (stereo not given) , system MOLT-4 leukemia: what TGI was measured?
Solution: > 100 µM

Problem: Entry Nc1cccc(C2CCCc3c2[nH]c2ccccc32)c1 (stereo not given) , system MOLT-4 leukemia: what TGI was measured?
Solution: 54.1 µM

Problem: Entry `Clc1ccc(CNc2ccc3nc(CCC4CCCCC4)[nH]c3c2)cc1` , system MOLT-4 leukemia: what TGI was measured?
Solution: 8.23 µM

----------
# Test system: RPMI-8226 leukemia
# protocol details: NCI tumour cell line growth inhibition, 48 h
TGI overview

Some molecules with known TGI results, for comparison:
CC(C)NC(=O)OCc1c(COC(=O)NC(C)C)c(-c2ccc[n+](COC(=O)C(C)C)c2)n2c1CCC2 : > 100 µM
CC(C)c1cc2c(c(O)c1O)[C@@]1(C)CCCC(C)(C)C1=C(O)C2 : 2.15 µM
N#Cc1c(-c2ccc(Cl)cc2)cc(-c2ccc(Nc3ccnc4cc(Cl)ccc34)cc2)nc1N : > 100 µM

Next molecule, please.
Problem: Entry C[C@H]1CCC/C=C/[C@@H]2C[C@H](O)C[C@H]2[C@H](O)[C@@H](S(=O)C[C@@H](N)C(=O)O)CC(=O)O1 (some centres undefined) , system RPMI-8226 leukemia: what TGI was measured?
Solution: > 95.3 µM

----------
# System: U251 CNS
# protocol details: NCI tumour cell line growth inhibition, 48 h
TGI overview

S=c1nc2sc3c(c2c(Nc2ccccc2)[nH]1)CCCC3 : > 100 µM

Problem: # get_value(readout='TGI', item= `O=c1oc2ccc(Br)cc2c(=O)n1-c1ccc(Br)cc1F` )
Solution: 9.82 µM

Problem: # get_value(readout='TGI', item= `CC(=O)CC(=O)Nc1ccccc1[N+](=O)[O-]` )
Solution: > 100 µM

Problem: # get_value(readout='TGI', item= `Cc1cc(Nc2nc(-c3ccc(F)cc3)nc3ccccc23)n[nH]1` )
Solution: 21.4 µM

Problem: # get_value(readout='TGI', item= `N#Cc1c(-c2ccc(Cl)cc2)cc(-c2ccc(Nc3ccnc4cc(Cl)ccc34)cc2)nc1N` )
Solution: > 100 µM

Problem: # get_value(readout='TGI', item= CC(OC(C)(C)C)[C@H](NC(=O)OCc1ccccc1)C(=O)NC(OCc1ccccc1)[C@H]1COC(C)(C)O1 (stereo not given in full) )
Solution: > 10 µM

Problem: # get_value(readout='TGI', item= NC(=O)C(N)CC12CC3CC(CC(C3)C1)C2 (stereo not given) )
Solution: 34.7 µM

----------
# Tested on: ACHN renal
# protocol details: NCI tumour cell line growth inhibition, 48 h
GI50 overview

Some compounds with known GI50 results, for comparison:
COc1ccc(C2C(C#N)=C(N)Oc3c2sc2c(F)cccc32)cc1 (stereo unspecified) : 6080 nM
CCC(=O)c1c(C(F)(F)F)n([O-])c2cc(N3CCNCC3)c(F)cc2[n+]1=O : 1550 nM
COc1cc(C)cc2c1[nH]c1ccccc12 : 23400 nM
O=C1Nc2ccccc2/C1=C\c1c[nH]c2ccc(Br)cc12 : 2820 nM
Clc1nc(Cl)c2ncn(C/C=C\COc3cccc(OC/C=C\Cn4cnc5c(Cl)nc(Cl)nc54)c3)c2n1 : > 100000 nM

Problem: # get_value(readout='GI50', item= `O=C1/C(=C\c2ccc(Cl)cc2)CCOc2c1ccc1ccccc21` )
Solution: 20400 nM

Problem: # get_value(readout='GI50', item= `O=c1oc2ccc(Br)cc2c(=O)n1-c1ccc(Br)cc1F` )
Solution: 933 nM

Problem: # get_value(readout='GI50', item= `Cn1cc(-c2nonc2-c2cn(C)c3ccc(F)cc23)c2ccccc21` )
Solution: 595 nM

Problem: # get_value(readout='GI50', item= `O=C(NCCCN1CCC(N2CCCCC2)CC1)C1=Cc2cc(Br)ccc2OC1` )
Solution: 10200 nM

Problem: # get_value(readout='GI50', item= COc1cc(C2CC(c3cccc(Nc4ccnc5cc(Cl)ccc45)c3)=NN2C=O)cc(OC)c1OC (stereo unspecified) )
Solution: 1270 nM

Problem: # get_value(readout='GI50', item= `Cc1cc(Nc2nc(-c3ccc(F)cc3)nc3ccccc23)n[nH]1` )
Solution: 818 nM
